Target: HCN2 (Homo sapiens)
Assay: HCN2 assay using PatchXpress 7000A (Example 50A)
Type: cell-based
Details: PatchXpress protocol (PX)
Structures can show the parent of a compound that is named as a salt.
Parameter: IC50. Scope: all listed entries.

- molecule: "N[C@@H](Cc1ccccn1)c1ccccc1-n1ncc2cc(Br)ccc21 [Example 1, hydrochloride]"
  tested_system: "HCN2 (Homo sapiens)"
  IC50 / nM: 900
- molecule: "N#Cc1nc(C[C@H](N)c2ncccc2-n2ncc3ccccc32)ccc1F [Example 22]"
  tested_system: "HCN2 (Homo sapiens)"
  IC50 / nM: 320
- molecule: "N#Cc1cccc(C[C@H](N)c2ncccc2-n2ncc3ccccc32)n1 [Example 6]"
  tested_system: "HCN2 (Homo sapiens)"
  IC50 / nM: 1100
- molecule: "Cc1ccc(C#N)nc1C[C@H](N)c1ncccc1-n1ncc2ccccc21 [Example 2, hydrochloride]"
  tested_system: "HCN2 (Homo sapiens)"
  IC50 / nM: 30

* * *

Target: HCN2 (Homo sapiens, UniProt Q9UL51)
Sequence (Q9UL51 1-889): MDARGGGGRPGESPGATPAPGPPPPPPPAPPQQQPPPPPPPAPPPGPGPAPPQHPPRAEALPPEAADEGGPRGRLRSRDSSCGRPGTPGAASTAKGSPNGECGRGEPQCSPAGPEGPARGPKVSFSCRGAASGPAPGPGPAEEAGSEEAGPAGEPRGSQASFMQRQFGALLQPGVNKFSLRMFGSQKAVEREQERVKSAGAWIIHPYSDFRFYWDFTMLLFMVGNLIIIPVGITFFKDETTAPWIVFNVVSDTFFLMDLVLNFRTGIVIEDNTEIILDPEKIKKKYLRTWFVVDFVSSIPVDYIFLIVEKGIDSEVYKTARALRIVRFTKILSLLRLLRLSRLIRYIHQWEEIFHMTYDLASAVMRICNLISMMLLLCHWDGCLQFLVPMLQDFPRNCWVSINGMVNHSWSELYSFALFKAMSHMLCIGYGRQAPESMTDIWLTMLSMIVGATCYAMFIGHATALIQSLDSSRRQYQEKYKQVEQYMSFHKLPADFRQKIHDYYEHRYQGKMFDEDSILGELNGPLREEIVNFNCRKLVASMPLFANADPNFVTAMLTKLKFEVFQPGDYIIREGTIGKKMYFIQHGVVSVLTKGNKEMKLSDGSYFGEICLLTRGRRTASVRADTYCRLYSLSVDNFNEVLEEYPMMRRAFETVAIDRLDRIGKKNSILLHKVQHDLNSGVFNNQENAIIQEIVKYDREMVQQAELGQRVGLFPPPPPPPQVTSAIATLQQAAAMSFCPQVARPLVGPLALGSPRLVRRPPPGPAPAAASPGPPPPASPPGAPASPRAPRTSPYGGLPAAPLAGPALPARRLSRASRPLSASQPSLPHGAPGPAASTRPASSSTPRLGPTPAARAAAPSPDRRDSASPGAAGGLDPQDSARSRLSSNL
Assay: HCN2 assay using PatchXpress 7000A (Example 50A)
Assay type: cell-based
Conditions: PatchXpress protocol (PX)
Structures can show the parent of a compound that is named as a salt.
Overview of recorded IC50 for various compounds

- compound: "NC(=O)c1ccc(F)c(C[C@H](N)c2ncccc2-n2ncc3ccccc32)n1"
  unit_text: "µM"
  bound_operator: "="
  IC50: 6.9
- compound: "Cc1nc(C[C@H](N)c2ncccc2-n2ncc3ccccc32)ccc1F [Example 20, hydrochloride]"
  unit_text: "µM"
  bound_operator: "="
  IC50: 0.9
- compound: "CN(C)C(=O)c1ccc(F)c(C[C@H](N)c2ncccc2-n2ncc3ccccc32)n1"
  unit_text: "µM"
  bound_operator: "="
  IC50: 2.6
- compound: "CCc1cccc(C[C@H](N)c2ncccc2-n2ncc3ccccc32)n1"
  unit_text: "µM"
  bound_operator: "="
  IC50: 2.1
- compound: "N[C@@H](Cc1cccc(-c2cn[nH]c2)n1)c1ncccc1-n1ncc2ccccc21 [Example 12, hydrochloride]"
  unit_text: "µM"
  bound_operator: ">"
  IC50: 10
- compound: "Cc1cc(F)cnc1C[C@H](N)c1ncccc1-n1ncc2ccccc21 [Example 26, hydrochloride]"
  unit_text: "µM"
  bound_operator: "="
  IC50: 0.015
- compound: "NC(=O)c1cccc(C[C@H](N)c2ncccc2-n2ncc3ccccc32)n1"
  unit_text: "µM"
  bound_operator: "="
  IC50: 17.3
- compound: "NC(=O)c1nc(C[C@H](N)c2ncccc2-n2ncc3ccccc32)ccc1F"
  unit_text: "µM"
  bound_operator: ">"
  IC50: 10
